- Tested on: HCC-2998 colon
- run_description: NCI tumour cell line growth inhibition, 48 h
quantity: TGI

{"compound": "COC(=O)CNC(=O)CCSc1nnc(COc2ccc(Cl)cc2)n1-c1ccccc1", "target_entity": "HCC-2998 colon", "quantity": "TGI", "data_value": "> 100 µM"}
{"compound": "Cc1cnc(NC2CCOCC2)nc1-n1cnc(C(=O)N[C@H](CN)c2cc(F)cc(Cl)c2)c1", "target_entity": "HCC-2998 colon", "quantity": "TGI", "data_value": "11.6 µM"}
{"compound": "CN(C)C(=S)/N=c1\\ss/c(=N\\C(=S)N(C)C)n1C1CCCCC1", "target_entity": "HCC-2998 colon", "quantity": "TGI", "data_value": "> 100 µM"}
{"compound": "S=c1nc(COc2ccc(Cl)cc2)[nH][nH]1", "target_entity": "HCC-2998 colon", "quantity": "TGI", "data_value": "> 100 µM"}
{"compound": "Nc1c(C(=O)c2cccc(-c3ccncc3)c2)cnn1-c1ccc(F)cc1", "target_entity": "HCC-2998 colon", "quantity": "TGI", "data_value": "> 25 µM"}
{"compound": "Cc1ccc(/C(=C/C=C(/C#N)C(N)=O)Sc2ncnn2C)cc1", "target_entity": "HCC-2998 colon", "quantity": "TGI", "data_value": "26.4 µM"}
{"compound": "O=C1c2ccccc2C(=O)c2c1ccc(O)c2O", "target_entity": "HCC-2998 colon", "quantity": "TGI", "data_value": "> 100 µM"}
{"compound": "Clc1ccc(Cc2nc3cc(Cl)ccc3o2)cc1", "target_entity": "HCC-2998 colon", "quantity": "TGI", "data_value": "53.2 µM"}
{"compound": "CCN(CC)CCN1CCc2c([nH]c3ccccc23)C1c1cccnc1 (stereo unspecified)", "target_entity": "HCC-2998 colon", "quantity": "TGI", "data_value": "> 100 µM"}
{"compound": "CC(C)(C)c1cc(COc2c3sc(=S)sc3c(OCc3cc(C(C)(C)C)cc(C(C)(C)C)c3)c3sc(=S)sc23)cc(C(C)(C)C)c1", "target_entity": "HCC-2998 colon", "quantity": "TGI", "data_value": "> 100 µM"}
{"compound": "Cc1nc2c(nc1C)C(=O)C1=C(C2=O)C2C=CC1CC2", "target_entity": "HCC-2998 colon", "quantity": "TGI", "data_value": "> 62.1 µM"}
{"compound": "Nc1nnnn1NC(=O)NCCCl", "target_entity": "HCC-2998 colon", "quantity": "TGI", "data_value": "> 10 µM"}
{"compound": "CN(C)CCNC(=O)c1cccc(NC(=O)c2ccccc2)c1[N+](=O)[O-]", "target_entity": "HCC-2998 colon", "quantity": "TGI", "data_value": "> 100 µM"}
{"compound": "N#CC(C#N)=C1/C(=C/C=C/C=C/C=C/c2ccc(N3CCCCC3)s2)S(=O)(=O)c2ccccc21", "target_entity": "HCC-2998 colon", "quantity": "TGI", "data_value": "> 100 µM"}
{"compound": "c1ccc(-c2cn3nc(N4CCOCC4)sc3n2)cc1", "target_entity": "HCC-2998 colon", "quantity": "TGI", "data_value": "> 100 µM"}
{"compound": "C=C(C)[C@@H]1CC[C@]2(C)[C@H](CC[C@@H]3[C@@H]([C@@](C)(O)CCC=C(C)C)CC[C@]32C)[C@@]1(C)CCC(=O)N1CCN(C)CC1", "target_entity": "HCC-2998 colon", "quantity": "TGI", "data_value": "26.3 µM"}
{"compound": "CC(C)c1nc(Cl)nc(Cl)c1Cl", "target_entity": "HCC-2998 colon", "quantity": "TGI", "data_value": "13.1 µM"}
{"compound": "COc1ccc(-n2cnc3c(NCC(=O)O)ncnc32)cc1", "target_entity": "HCC-2998 colon", "quantity": "TGI", "data_value": "> 100 µM"}
{"compound": "c1ccc([P+](c2ccccc2)(c2ccccc2)c2ccc([P+](c3ccccc3)(c3ccccc3)c3ccccc3)c3ccccc23)cc1", "target_entity": "HCC-2998 colon", "quantity": "TGI", "data_value": "> 100 µM"}
{"compound": "CCN1CCN(Cc2ccc(NC(=O)c3nc4ccc5[nH]ncc5c4c4c3CCCC4)cc2C(F)(F)F)CC1", "target_entity": "HCC-2998 colon", "quantity": "TGI", "data_value": "1.59 µM"}
{"compound": "O=C(O)c1ccccc1NS(=O)(=O)c1ccc([N+](=O)[O-])cc1", "target_entity": "HCC-2998 colon", "quantity": "TGI", "data_value": "> 100 µM"}

====

- System: NCI-H522 lung
- run_description: NCI tumour cell line growth inhibition, 48 h; in the data active = GI50 below about 0.43 µM; inactive = the rest
Possible outcomes: label 1 for active, label 0 for inactive

{"compound": "CS(=O)(=O)OCCn1c2c(c3c(O)cccc31)C(=O)c1ccccc1-2", "category": "label 0"}
{"compound": "C=C1C(C(O)C[C@H](C)C2O[C@@]3(CCCCO3)CCC2C)O[C@@H]2CCC3(CCC(/C=C/[C@@H](C)C4CC(C)=CC5(O4)O[C@H](C[C@](C)(O)C(=O)O)CCC5O)O3)OC2[C@@H]1O (stereo partly drawn)", "category": "label 1"}
{"compound": "Nc1cc2ccccc2c(O)c1O", "category": "label 0"}

====

- Test system: SF-268 CNS
- run_description: NCI tumour cell line growth inhibition, 48 h
So basically: TGI at 10 µM or higher? That is True. Lower than 10 µM? That is False.

{"compound": "CC(=O)O[C@H]1[C@@H]2OC(=O)C3(CC3)C2C[C@H]2O[C@]2(C)CC/C=C(\\C)CCC[C@@H]1C (stereo not given in full)", "category": "True"}
{"compound": "Nc1cc2ccccc2c(O)c1O", "category": "False"}
{"compound": "COc1c(Cl)nc2ccccc2c1N=[N+]=[N-]", "category": "True"}
{"compound": "Cc1c2cccc(Sc3ccccc3)c2c2c3c(cccc13)[S+](c1ccccc1)C2 (stereo not given)", "category": "True"}
{"compound": "COc1ccc(-c2cn(-c3cccc(C(=O)/C=C/c4cc(OC)c(OC)c(OC)c4)c3)c(=O)[nH]2)cc1", "category": "True"}
{"compound": "CC(C)=C[C@@H]1C[C@H](C)[C@H]2CC[C@H](C)c3c(O)c(OC4OCC(O)C(O)C4O)c(C)c1c32 (stereo not given in full)", "category": "True"}
{"compound": "NCC(O)CSP(=O)(O)O (stereo not given)", "category": "True"}
{"compound": "Cc1ccc(-c2cc(-c3cc(-c4ccc(C)cc4C)n[nH]3)[nH]n2)c(C)c1", "category": "True"}
{"compound": "CCCCC(=O)Nc1ccc2cc(C(=O)OC)c(Cl)nc2n1", "category": "True"}
{"compound": "COc1ccc(N2C(=O)C3c4[nH]c5c(C)cccc5c4C4CCC(c5ccccc5)CC4C3C2=O)cc1 (stereo not given)", "category": "True"}
{"compound": "CN1C(=O)C23CC4(C56CC78SSC(CO)(C(=O)N7C5Nc5ccccc56)N(C)C8=O)c5ccccc5NC4N2C(=O)C1(CO)SS3 (stereo not given)", "category": "False"}
{"compound": "CN(C)c1ccc(N=Nc2ccc(Br)cn2)c(O)c1", "category": "True"}
{"compound": "CC(C)CC(=O)[O-].CC(C)CC(=O)[O-].N.N.N.N.[Co+3].[O-][Cl+3]([O-])([O-])O.[O-][Cl+3]([O-])([O-])[O-]", "category": "True"}
{"compound": "COc1cc2c3c(c1OC)-c1ccccc1C(C(O)c1ccccc1)C3N(C)CC2 (stereo not given)", "category": "True"}
{"compound": "O=C(O)c1ccccc1NS(=O)(=O)c1ccc([N+](=O)[O-])cc1", "category": "True"}
{"compound": "CCCCCCCCCOc1c(OC)cc(C2CC(=O)Nc3c2c(C)nn3-c2nc3ccccc3[nH]2)cc1OC (stereo not given)", "category": "False"}
{"compound": "COc1ccc(O)c2c(=O)ccccc12", "category": "True"}
{"compound": "S=c1[nH]nc(C23CC4CC(CC(C4)C2)C3)n1-c1ccc(Cl)cc1", "category": "True"}
{"compound": "Nc1nc2c(ncn2C2C=CC(COS(N)(=O)=O)C2)c(=O)[nH]1 (stereo not given)", "category": "True"}
{"compound": "Cc1nn(CN2CCN(C)CC2)c(=S)n1/N=C/c1ccc(-c2ccc(Cl)cc2Cl)o1", "category": "True"}

====

- Test system: LOX IMVI melanoma
- run_description: NCI tumour cell line growth inhibition, 48 h

{"compound": "COc1nc(=O)n(C2CC(F)C(CO)O2)cc1C (stereo unspecified)", "target_entity": "LOX IMVI melanoma", "TGI": "> 100 µM"}
{"compound": "Cc1ccc(-c2cc(-c3cc(-c4ccc(C)cc4C)n[nH]3)[nH]n2)c(C)c1", "target_entity": "LOX IMVI melanoma", "TGI": "38.4 µM"}
{"compound": "O=C1c2ccccc2C(=O)c2c1ccc(O)c2O", "target_entity": "LOX IMVI melanoma", "TGI": "> 100 µM"}
{"compound": "CCCCCCCCCOc1c(OC)cc(C2CC(=O)Nc3c2c(C)nn3-c2nc3ccccc3[nH]2)cc1OC (stereo unspecified)", "target_entity": "LOX IMVI melanoma", "TGI": "1.67 µM"}
{"compound": "O=C1c2ccccc2OCC1/C=N/O (stereo unspecified)", "target_entity": "LOX IMVI melanoma", "TGI": "> 100 µM"}
{"compound": "COC(=O)CNC(=O)CCSc1nnc(COc2ccc(Cl)cc2)n1-c1ccccc1", "target_entity": "LOX IMVI melanoma", "TGI": "> 100 µM"}
{"compound": "Cc1ccc(-n2c(=S)[nH]c3ccc(Br)cc3c2=O)cc1", "target_entity": "LOX IMVI melanoma", "TGI": "> 100 µM"}
{"compound": "O=c1[nH]c2c3ccncc3cc(-c3cccc(Cl)c3)c2c2cnccc12", "target_entity": "LOX IMVI melanoma", "TGI": "> 100 µM"}
{"compound": "COc1cc(/C=C\\c2cc(/C=C\\c3ccc(O)c(OC)c3)n(C(=O)COc3ccccc3)n2)ccc1O", "target_entity": "LOX IMVI melanoma", "TGI": "3.29 µM"}
{"compound": "COc1cccc(-n2ncc3c(N/N=C/c4cccc(F)c4)ncnc32)c1", "target_entity": "LOX IMVI melanoma", "TGI": "> 25 µM"}
{"compound": "O=C(/C=C/c1ccccc1O)c1cccs1", "target_entity": "LOX IMVI melanoma", "TGI": "> 100 µM"}
{"compound": "COc1ccc(-n2cnc3c(NCC(=O)O)ncnc32)cc1", "target_entity": "LOX IMVI melanoma", "TGI": "> 100 µM"}
{"compound": "N#CCCN(CCC#N)c1ccc(/C=C2\\N=C(c3cc([N+](=O)[O-])ccc3Cl)N(S(=O)(=O)c3ccccc3)C2=O)cc1", "target_entity": "LOX IMVI melanoma", "TGI": "> 100 µM"}
{"compound": "COc1ccc(N2C(=O)C3c4[nH]c5c(C)cccc5c4C4CCC(c5ccccc5)CC4C3C2=O)cc1 (stereo unspecified)", "target_entity": "LOX IMVI melanoma", "TGI": "> 100 µM"}
{"compound": "CCNC(=O)OCC1C2=C(C(=O)C(C)=C(N)C2=O)N2CC3C(N3C)C12OC (stereo unspecified)", "target_entity": "LOX IMVI melanoma", "TGI": "> 68.7 µM"}
{"compound": "CSc1cc(Cl)c(C)cc1S(=O)(=O)NC(=O)Nc1ccc(Cl)cc1", "target_entity": "LOX IMVI melanoma", "TGI": "52.5 µM"}
{"compound": "CC1CN=C(c2cccc(-c3ccc(-c4ccccc4)o3)c2)N1 (stereo unspecified)", "target_entity": "LOX IMVI melanoma", "TGI": "3.22 µM"}
{"compound": "FC(F)(F)c1ccc(C2=N/S(c3ccccc3)=N\\C(c3ccc(C(F)(F)F)cc3)=N/S(c3ccccc3)=N\\2)cc1 (stereo unspecified)", "target_entity": "LOX IMVI melanoma", "TGI": "> 100 µM"}
{"compound": "NC(N)=NS(=O)(=O)c1ccc(NC(=O)c2cccc3cc4ccccc4nc23)cc1", "target_entity": "LOX IMVI melanoma", "TGI": "> 100 µM"}
{"compound": "Cc1ccc(/C(=C/C=C(/C#N)C(N)=O)Sc2ncnn2C)cc1", "target_entity": "LOX IMVI melanoma", "TGI": "1.4 µM"}
{"compound": "C[C@@]1(O)C2C3CC4C5C3C1[C@](O)(C42)[C@H]5Br (stereo partly specified)", "target_entity": "LOX IMVI melanoma", "TGI": "> 100 µM"}

Data provenance is PubChem BioAssay (NCI).
